Values were extracted from patent US4335249A.

Below, each of the compounds is paired with its reported % control, Marigold value.
test system: marigold (Tagetes spp.); assay: Preemergence herbicidal activity, marigold; format: in vivo; settings: Pre, 2 lb/A
Numbers only here, please. The scale is %.

Find the recorded % control, Marigold belonging to CC(Oc1ccc(Oc2ccc(C(F)(F)F)cc2Cl)cc1)C(=O)O (stereo not drawn) [Example 15] and report it.
0

Further cases:
Find the recorded % control, Marigold belonging to CC(Oc1ccc(Oc2ccc(C(F)(F)F)cc2Cl)cc1)C(=O)O (stereo not drawn) [Example 14] and report it.
0

Find the recorded % control, Marigold belonging to CC(Oc1ccc(Oc2ccc(C(F)(F)F)cc2Cl)cc1)C(=O)O (stereo not drawn) [Example 16] and report it.
0

###

tested on: downybrome (Bromus tectorum); assay: Postemergence herbicidal activity, downybrome; type: in vivo; settings: Bromus tectorum, post-emergence, 336 h, Post, 2 lb/A
quantityMeasured: pest or weed control at 2241.7 g/ha (%)
Numbers only here, please. The scale is %.

Find the recorded pest or weed control at 2241.7 g/ha belonging to CC(C#N)Oc1ccc(Oc2ccc(C(F)(F)F)cc2)cc1 (stereo not shown) [Example 41] and report it.
40

Find the recorded pest or weed control at 2241.7 g/ha belonging to CC(Oc1ccc(Oc2ccc(C(F)(F)F)cc2)cc1)C(N)=O (stereo not shown) [Example 40] and report it.
40

Find the recorded pest or weed control at 2241.7 g/ha belonging to CCOC(=O)C(C)Oc1ccc(Oc2ccc(C(F)(F)F)cc2Cl)cc1C (stereo not shown) [Example 10] and report it.
0

Find the recorded pest or weed control at 2241.7 g/ha belonging to CC(C)OC(=O)C(C)Oc1ccc(Oc2ccc(C(F)(F)F)cc2Cl)cc1 (stereo not shown) [Example 22] and report it.
99

Find the recorded pest or weed control at 2241.7 g/ha belonging to CCNC(=O)C(C)Oc1ccc(Oc2ccc(C(F)(F)F)cc2Cl)cc1 (stereo not shown) [Example 21] and report it.
30

Find the recorded pest or weed control at 2241.7 g/ha belonging to CCOC(=O)COc1ccc(Oc2ccc(C(F)(F)F)cc2Cl)cc1 [Example 11] and report it.
0

Find the recorded pest or weed control at 2241.7 g/ha belonging to CCOC(=O)C(C)Oc1ccc(Oc2ccc(C(F)(F)F)cc2)cc1 (stereo not shown) [Example 27] and report it.
100

###

Below, each of the molecules is paired with its reported pest or weed control at 2241.7 g/ha value.
test system: marigold (Tagetes spp.); assay: Postemergence herbicidal activity, marigold; type: in vivo; settings: post-emergence, 336 h, 2 lb/A
Numbers only here, please. The scale is %.

Consider the following illustrative entries.
Find the recorded pest or weed control at 2241.7 g/ha belonging to CCOC(=O)C(C)Oc1ccc(Oc2ccc(C(F)(F)F)cc2Cl)cc1[N+](=O)[O-] (centres unmarked) and report it.
50

Find the recorded pest or weed control at 2241.7 g/ha belonging to CC(Oc1ccc(Oc2ccc(C(F)(F)F)cc2Cl)cc1)C(=O)OC(C)(C)C (centres unmarked) and report it.
0

Find the recorded pest or weed control at 2241.7 g/ha belonging to CC(Oc1ccc(Oc2ccc(C(F)(F)F)cc2)cc1)C(=O)O (centres unmarked) and report it.
30

Find the recorded pest or weed control at 2241.7 g/ha belonging to CCOC(=O)COc1ccc(Oc2ccc(C(F)(F)F)cc2Cl)cc1 and report it.
0

Find the recorded pest or weed control at 2241.7 g/ha belonging to CCOC(=O)C(C)Oc1ccc(Sc2ccc(C(F)(F)F)cc2Cl)cc1 (centres unmarked) and report it.
50

Further cases:
Find the recorded pest or weed control at 2241.7 g/ha belonging to CC(C)OC(=O)C(C)Oc1ccc(Oc2ccc(C(F)(F)F)cc2Cl)cc1 (centres unmarked) and report it.
30

Find the recorded pest or weed control at 2241.7 g/ha belonging to CC(Oc1ccc(Oc2ccc(C(F)(F)F)cc2)cc1)C(N)=O (centres unmarked) and report it.
0

Find the recorded pest or weed control at 2241.7 g/ha belonging to C=CCOC(=O)C(C)Oc1ccc(Oc2ccc(C(F)(F)F)cc2Cl)cc1 (centres unmarked) and report it.
50

###

test system: marigold (Tagetes spp.); assay: Postemergence herbicidal activity, marigold; assay type: in vivo; conditions: post-emergence, 336 h, 2 lb/A
Below, each of the compounds is paired with its reported pest or weed control at 2241.7 g/ha value.
Numbers only here, please. The scale is %.

Find the recorded pest or weed control at 2241.7 g/ha belonging to CCOC(=O)C(C)Oc1ccc(Sc2ccc(C(F)(F)F)cc2C#N)cc1 (stereo not drawn) [Example 47] and report it.
0

Find the recorded pest or weed control at 2241.7 g/ha belonging to CC(Oc1ccc(Oc2ccc(C(F)(F)F)cc2Cl)cc1)C(=O)OCCN(C)C (stereo not drawn) [Example 31] and report it.
40

###

system: marigold (Tagetes spp.); test: Postemergence herbicidal activity, marigold; type: in vivo; details: post-emergence, 336 h, 2 lb/A
quantityMeasured: pest or weed control at 2241.7 g/ha (%)
Numbers only here, please. The scale is %.

Consider the following illustrative entries.
Find the recorded pest or weed control at 2241.7 g/ha belonging to CCOC(=O)CCC(C)Oc1ccc(Oc2ccc(C(F)(F)F)cc2Cl)cc1 (stereo not shown) and report it.
0

Find the recorded pest or weed control at 2241.7 g/ha belonging to COC(=O)C(C)Oc1ccc(Oc2ccc(C(F)(F)F)cc2Cl)cc1 (stereo not shown) and report it.
30

Find the recorded pest or weed control at 2241.7 g/ha belonging to CCOC(=O)C(C)Oc1ccc(Sc2ccc(C(F)(F)F)cc2[N+](=O)[O-])cc1 (stereo not shown) and report it.
0

Find the recorded pest or weed control at 2241.7 g/ha belonging to CC(C#N)Oc1ccc(Oc2ccc(C(F)(F)F)cc2Cl)cc1 (stereo not shown) and report it.
0

Find the recorded pest or weed control at 2241.7 g/ha belonging to CCOC(=O)C(C)Oc1ccc(Oc2ccc(C(F)(F)F)cc2)cc1 (stereo not shown) and report it.
100

Further cases:
Find the recorded pest or weed control at 2241.7 g/ha belonging to CCOC(=O)CCC(C)Oc1ccc(Oc2ccc(C(F)(F)F)cc2)cc1 (stereo not shown) and report it.
0

Find the recorded pest or weed control at 2241.7 g/ha belonging to CCC(C)OC(=O)C(C)Oc1ccc(Oc2ccc(C(F)(F)F)cc2Cl)cc1 (stereo not shown) and report it.
0

Find the recorded pest or weed control at 2241.7 g/ha belonging to CCCCCCOC(=O)C(C)Oc1ccc(Oc2ccc(C(F)(F)F)cc2Cl)cc1 (stereo not shown) and report it.
0

Find the recorded pest or weed control at 2241.7 g/ha belonging to CCCCOC(=O)C(C)Oc1ccc(Oc2ccc(C(F)(F)F)cc2Cl)cc1 (stereo not shown) and report it.
30

Find the recorded pest or weed control at 2241.7 g/ha belonging to CCCCCCCCOC(=O)C(C)Oc1ccc(Oc2ccc(C(F)(F)F)cc2Cl)cc1 (stereo not shown) and report it.
70

Find the recorded pest or weed control at 2241.7 g/ha belonging to CC(Oc1ccc(Oc2ccc(C(F)(F)F)cc2Cl)cc1)C(N)=O (stereo not shown) and report it.
0

Find the recorded pest or weed control at 2241.7 g/ha belonging to CCNC(=O)C(C)Oc1ccc(Oc2ccc(C(F)(F)F)cc2Cl)cc1 (stereo not shown) and report it.
0

###

tested on: marigold (Tagetes spp.); assay: Postemergence herbicidal activity, marigold; format: in vivo; details: post-emergence, 336 h, 2 lb/A
quantityMeasured: pest or weed control at 2241.7 g/ha (%)
Numbers only here, please. The scale is %.

What measured pest or weed control at 2241.7 g/ha is associated with CC(C#N)Oc1ccc(Oc2ccc(C(F)(F)F)cc2)cc1 (stereo not shown) [Example 41] on marigold (Tagetes spp.)?
0

What measured pest or weed control at 2241.7 g/ha is associated with CCOC(=O)C(C)Oc1cccc(Oc2ccc(C(F)(F)F)cc2Cl)c1 (stereo not shown) [Example 2] on marigold (Tagetes spp.)?
90

What measured pest or weed control at 2241.7 g/ha is associated with CCOC(=O)C(CC)Oc1ccc(Oc2ccc(C(F)(F)F)cc2Cl)cc1 (stereo not shown) [Example 20] on marigold (Tagetes spp.)?
0

Could you now consider this next compound?
What measured pest or weed control at 2241.7 g/ha is associated with CCOC(=O)C(C)Oc1ccc(Oc2ccc(C(F)(F)F)cc2Cl)cc1OC (stereo not shown) [Example 8] on marigold (Tagetes spp.)?
0
